Some compounds, each annotated with its measured pIC50.
# measuredOn: UniProt Q07343
# Sequence (Q07343 1-564 isoform Q07343-2): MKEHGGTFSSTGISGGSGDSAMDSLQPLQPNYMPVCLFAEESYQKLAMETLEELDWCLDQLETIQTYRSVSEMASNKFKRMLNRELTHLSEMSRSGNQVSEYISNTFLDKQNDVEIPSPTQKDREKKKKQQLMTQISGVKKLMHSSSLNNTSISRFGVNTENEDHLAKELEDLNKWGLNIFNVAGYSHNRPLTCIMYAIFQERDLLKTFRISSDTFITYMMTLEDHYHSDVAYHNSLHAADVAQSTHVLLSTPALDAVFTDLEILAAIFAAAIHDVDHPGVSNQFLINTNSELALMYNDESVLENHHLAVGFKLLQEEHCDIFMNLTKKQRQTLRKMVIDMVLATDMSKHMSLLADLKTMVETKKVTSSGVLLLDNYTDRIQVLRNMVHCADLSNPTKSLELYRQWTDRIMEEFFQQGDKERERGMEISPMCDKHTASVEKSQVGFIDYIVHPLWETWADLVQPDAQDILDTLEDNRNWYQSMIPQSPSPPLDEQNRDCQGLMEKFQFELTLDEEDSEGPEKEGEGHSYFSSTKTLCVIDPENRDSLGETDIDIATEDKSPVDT
# protocolDescription: Recombinant PDE4 Inhibition Assay of Example A2
# conditionSet: recombinant enzyme
pIC50: −log10 of the molar value.
measurementKind: pIC50

>>> reportedvalue("COc1cc([C@@]23C=CC(=O)C[C@@H]2N(C)CC3)cc(F)c1OC [Compound 133]")
"5.00 to 6.00"
>>> reportedvalue("COc1cc([C@@]23C=CC(=O)CC2N(C)CC3)cc(Br)c1OC (stereo partly shown) [Compound 130]")
"< 5.00"
>>> reportedvalue("COc1cc(C23C=CC(=O)CC2N(C)CC3)cc(OC)c1OC (stereo not shown) [Compound 144]")
"< 5.00"
>>> reportedvalue("COc1cc([C@@]23C=CC(=O)C[C@@H]2N(C)CC3)cc(I)c1OC [Compound 132]")
"< 5.00"

====

# measuredOn: PDE4A1A (Homo sapiens, UniProt P27815)
# Sequence (P27815 1-647 isoform P27815-4): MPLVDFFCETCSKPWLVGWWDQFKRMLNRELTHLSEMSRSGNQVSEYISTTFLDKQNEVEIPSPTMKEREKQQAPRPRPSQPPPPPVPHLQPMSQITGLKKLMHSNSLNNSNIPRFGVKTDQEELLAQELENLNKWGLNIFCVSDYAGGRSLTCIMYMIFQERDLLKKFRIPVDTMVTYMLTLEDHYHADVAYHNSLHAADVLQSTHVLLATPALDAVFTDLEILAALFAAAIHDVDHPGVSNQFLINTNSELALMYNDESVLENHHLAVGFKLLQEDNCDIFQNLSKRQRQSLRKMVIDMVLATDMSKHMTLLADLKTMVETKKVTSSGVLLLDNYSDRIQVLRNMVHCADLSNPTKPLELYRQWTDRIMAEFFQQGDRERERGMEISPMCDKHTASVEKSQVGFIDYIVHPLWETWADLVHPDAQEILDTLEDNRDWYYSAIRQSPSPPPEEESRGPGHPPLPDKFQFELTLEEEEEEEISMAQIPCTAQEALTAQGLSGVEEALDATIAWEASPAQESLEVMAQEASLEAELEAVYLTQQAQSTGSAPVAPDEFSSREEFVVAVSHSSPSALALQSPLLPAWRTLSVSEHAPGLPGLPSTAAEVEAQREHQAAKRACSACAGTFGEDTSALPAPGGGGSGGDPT
# protocolDescription: Recombinant PDE4 Inhibition Assay of Example A2
# conditionSet: recombinant enzyme
pIC50: −log10 of the molar value.
Some compounds, each annotated with its measured pIC50.
measurementKind: pIC50

>>> reportedvalue("COc1cc([C@@]23C=CC(=O)C[C@@H]2N(C)CC3)cc(F)c1OC")
"5.00 to 6.00"
>>> reportedvalue("COc1cc(C23C=CC(=O)CC2N(C)CC3)cc(OC)c1OC (stereo not shown)")
"< 5.00"
>>> reportedvalue("COc1cc([C@@]23C=CC(=O)C[C@@H]2N(C)CC3)cc(I)c1OC")
"< 5.00"
>>> reportedvalue("COc1cc([C@@]23C=CC(=O)CC2N(C)CC3)cc(Br)c1OC (stereo partly shown)")
"< 5.00"

====

# measuredOn: SERT (Homo sapiens, UniProt P31645)
# Construct: expressed in transfected cells
# Sequence (P31645 whole entry, species assumed): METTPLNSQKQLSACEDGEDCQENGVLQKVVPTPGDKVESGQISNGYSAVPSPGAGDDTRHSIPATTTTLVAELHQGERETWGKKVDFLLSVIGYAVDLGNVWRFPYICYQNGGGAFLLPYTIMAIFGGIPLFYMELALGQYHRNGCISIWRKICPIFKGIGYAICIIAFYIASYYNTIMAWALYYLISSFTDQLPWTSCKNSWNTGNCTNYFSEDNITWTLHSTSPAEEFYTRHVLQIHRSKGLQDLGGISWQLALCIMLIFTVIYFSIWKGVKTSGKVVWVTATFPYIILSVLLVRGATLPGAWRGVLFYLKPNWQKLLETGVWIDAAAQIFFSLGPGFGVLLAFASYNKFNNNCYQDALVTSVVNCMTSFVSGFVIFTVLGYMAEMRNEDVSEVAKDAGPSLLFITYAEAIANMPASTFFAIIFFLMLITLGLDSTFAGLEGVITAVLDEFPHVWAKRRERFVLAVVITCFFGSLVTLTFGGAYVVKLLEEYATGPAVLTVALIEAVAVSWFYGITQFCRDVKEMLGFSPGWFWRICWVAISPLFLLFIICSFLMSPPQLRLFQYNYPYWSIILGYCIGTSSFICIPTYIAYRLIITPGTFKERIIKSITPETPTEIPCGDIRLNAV
# protocolDescription: SERT Inhibition Assay of Example A1 (Neurotransmitter Transporter fluorescence uptake, stable 5HTT cells)
# Assay type: cell-based
# conditionSet: read-out: SERT inhibition IC50
pIC50: −log10 of the molar value.
Some molecules, each annotated with its measured pIC50.
measurementKind: pIC50

>>> reportedvalue("COc1cc([C@@]23C=CC(=O)C[C@@H]2N(C)CC3)cc(I)c1OC")
"> 6.00"
>>> reportedvalue("COc1cc(C23C=CC(=O)CC2N(C)CC3)cc(OC)c1OC (stereo not shown)")
"< 6.00"
>>> reportedvalue("COc1cc([C@@]23C=CC(=O)CC2N(C)CC3)cc(Br)c1OC (stereo partly shown)")
"> 6.00"
>>> reportedvalue("COc1cc([C@@]23C=CC(=O)C[C@@H]2N(C)CC3)cc(F)c1OC")
"> 6.00"

====

# measuredOn: SERT (Homo sapiens, UniProt P31645)
# Construct: expressed in transfected cells
# protocolDescription: SERT Inhibition Assay of Example A1 (Neurotransmitter Transporter fluorescence uptake, stable 5HTT cells)
# Assay type: cell-based
# conditionSet: class symbols; read-out: SERT IC50
pIC50: −log10 of the molar value.
measurementKind: pIC50

>>> reportedvalue("COc1cc([C@@]23C=CC(=O)CC2N(C)CC3)cc(Br)c1OC (stereo partly shown)")
"6.00 to 6.30"
>>> reportedvalue("COc1cc(C23C=CC(=O)CC2N(C)CC3)cc(OC)c1OC (stereo not shown)")
"< 6.00"
>>> reportedvalue("COc1cc([C@@]23C=CC(=O)C[C@@H]2N(C)CC3)cc(F)c1OC")
"6.30 to 7.00"
>>> reportedvalue("COc1cc([C@@]23C=CC(=O)C[C@@H]2N(C)CC3)cc(I)c1OC")
"6.30 to 7.00"
